Target: ATF5 (Homo sapiens, UniProt Q9Y2D1)
Construct: made in house
Sequence (Q9Y2D1 208-271 limits assumed): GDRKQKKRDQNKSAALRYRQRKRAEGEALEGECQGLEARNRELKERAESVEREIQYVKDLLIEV
Test: Direct-binding FRET assay
Details: 4°C; N-terminal rhodamine design; repeat 3; read-out: Kd
pKd: −log10 of the molar value. Where no end group is shown, it is not given here.
value.type: pKd

- chain.sequence: "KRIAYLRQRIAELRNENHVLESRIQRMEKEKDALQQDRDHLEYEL [ATF5-d1]"
  assay.system: "ATF5 (Homo sapiens, UniProt Q9Y2D1)"
  value.type: "pKd"
  endpoint.result: "6.00 to 6.70"

* * *

Target: FOS (Homo sapiens, UniProt P01100)
Sequence (P01100 137-200 limits assumed): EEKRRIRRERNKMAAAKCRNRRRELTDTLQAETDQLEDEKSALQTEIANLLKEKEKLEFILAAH
Experiment: Direct-binding FRET assay
Set-up: made in house
Settings: 37°C; C-terminal rhodamine design; mean or single; read-out: Kd
Where no end group is shown, it is not given here.

- chain.sequence: "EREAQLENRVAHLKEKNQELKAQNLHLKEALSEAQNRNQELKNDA [XBP1-d1]"
  Kd: "> 1000 nM"

* * *

Biological target: NFE2L1 (Homo sapiens, UniProt Q14494)
Sequence (Q14494 654-717 limits assumed): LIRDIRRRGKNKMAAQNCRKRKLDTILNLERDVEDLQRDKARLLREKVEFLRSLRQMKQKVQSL
Assay: Direct-binding FRET assay
Parameters: made in house
Conditions: 37°C; N-terminal rhodamine design; mean or single; read-out: Kd
Where no end group is shown, it is not given here.
Each entry below carries its reported Kd.

- chain.sequence: "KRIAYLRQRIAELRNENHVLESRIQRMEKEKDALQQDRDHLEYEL [ATF5-d1]"
  Kd: "> 1000 nM"
- chain.sequence: "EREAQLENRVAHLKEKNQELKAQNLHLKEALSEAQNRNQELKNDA [XBP1-d1]"
  Kd: "> 1000 nM"
- chain.sequence: "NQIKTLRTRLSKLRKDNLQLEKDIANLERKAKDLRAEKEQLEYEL [ATF4-d1]"
  Kd: "> 1000 nM"

* * *

Target: MAF (Homo sapiens, UniProt O75444)
Sequence (O75444 288-351 limits assumed): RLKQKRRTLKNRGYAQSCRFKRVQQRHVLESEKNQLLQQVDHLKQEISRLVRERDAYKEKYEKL
Assay: Direct-binding FRET assay
Parameters: made in house
Details: 4°C; C-terminal fluorescein design as donor, TAMRA target titrated; read-out: Kd
pKd: −log10 of the molar value. Where no end group is shown, it is not given here.
value.type: pKd

- chain.sequence: "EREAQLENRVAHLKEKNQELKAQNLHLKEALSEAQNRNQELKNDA [XBP1-d1]"
  endpoint.result: "< 6.00"

* * *

Biological target: ATF2 (Homo sapiens)
Construct: made in house
Sequence (P15336 352-415 limits assumed): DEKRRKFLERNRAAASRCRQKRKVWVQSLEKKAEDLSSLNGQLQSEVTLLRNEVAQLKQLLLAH
Experiment: Direct-binding FRET assay
Details: 4°C; C-terminal rhodamine design; repeat 1; read-out: Kd
Where no end group is shown, it is not given here.
value.type: Kd

- chain.sequence: "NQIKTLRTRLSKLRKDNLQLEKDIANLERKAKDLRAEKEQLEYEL [ATF4-d1]"
  assay.system: "ATF2 (Homo sapiens)"
  value.type: "Kd"
  endpoint.result: "> 5 µM"

* * *

Biological target: NFE2L1 (Homo sapiens)
Experiment: Direct-binding FRET assay
Parameters: made in house
Details: 37°C; N-terminal rhodamine design; repeat 1; read-out: Kd
Protocol: The direct binding assay was performed manually in 384-well plates and is similar to a previously described assay. Wells were filled with 20 μL of 1 mM TCEP-HCl. […] Briefly, the Kd of the designed peptide homodimer was experimentally determined and used with previously determined target homodimer Kd values to determine the heterodimer Kd. […] A minimum 15% change in the donor fluorescence upon titrating the acceptor peptide from 0 to 1000 nM was required for a fit to be attempted. […]
pKd: −log10 of the molar value. Where no end group is shown, it is not given here.
value.type: pKd

- chain.sequence: "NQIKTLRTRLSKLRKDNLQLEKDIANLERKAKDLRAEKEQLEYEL [ATF4-d1]"
  value.type: "pKd"
  endpoint.result: "< 6.00"

* * *

Target: ATF4 (Homo sapiens, UniProt P18848)
Construct: made in house
Sequence (P18848 278-341 limits assumed): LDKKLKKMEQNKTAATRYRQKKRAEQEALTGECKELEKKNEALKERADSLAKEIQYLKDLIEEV
Experiment: Direct-binding FRET assay
Conditions: Kd, 23°C; N-terminal rhodamine design; mean or single
pKd: −log10 of the molar value. Where no end group is shown, it is not given here.
value.type: pKd

- chain.sequence: "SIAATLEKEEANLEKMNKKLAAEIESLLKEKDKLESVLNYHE [JUN-d1]"
  value.type: "pKd"
  endpoint.result: "< 5.30"

* * *

Target: MAFB (Homo sapiens, UniProt Q9Y5Q3)
Sequence (Q9Y5Q3 238-301 limits assumed): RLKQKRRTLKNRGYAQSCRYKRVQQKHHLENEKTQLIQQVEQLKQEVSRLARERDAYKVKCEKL
Experiment: Direct-binding FRET assay
Parameters: made in house
Settings: Kd, 4°C; N-terminal rhodamine design; mean or single
Experimental: The direct binding assay was performed manually in 384-well plates and is similar to a previously described assay. Wells were filled with 20 μL of 1 mM TCEP-HCl. […] Briefly, the Kd of the designed peptide homodimer was experimentally determined and used with previously determined target homodimer Kd values to determine the heterodimer Kd. […] A minimum 15% change in the donor fluorescence upon titrating the acceptor peptide from 0 to 1000 nM was required for a fit to be attempted. […]
pKd: −log10 of the molar value. Where no end group is shown, it is not given here.

- chain.sequence: "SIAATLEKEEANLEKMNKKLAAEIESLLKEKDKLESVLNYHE [JUN-d1]"
  pKd: "< 6.00"

* * *

Target: ATF4 (Homo sapiens, UniProt P18848)
Construct: made in house
Experiment: Competition binding assay, unlabeled design vs FITC-labeled design and TAMRA-labeled ATF4
Conditions: unlabeled design mixed with FITC-labeled design and TAMRA-labeled ATF4
Where no end group is shown, it is not given here.
Each entry below carries its reported Ki.

- chain.sequence: "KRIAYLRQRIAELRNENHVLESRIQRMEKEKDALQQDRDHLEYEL [ATF5-d1]"
  uom: "nM"
  Ki: 6
- chain.sequence: "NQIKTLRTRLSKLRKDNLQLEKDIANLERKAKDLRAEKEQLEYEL [ATF4-d1]"
  uom: "nM"
  Ki: 48

* * *

Target: ATF4 (Homo sapiens, UniProt P18848)
Construct: made in house
Test: Direct-binding FRET assay
Details: Kd, 37°C; C-terminal rhodamine design; mean or single
pKd: −log10 of the molar value. Where no end group is shown, it is not given here.
value.type: pKd

- chain.sequence: "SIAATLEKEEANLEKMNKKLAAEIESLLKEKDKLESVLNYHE [JUN-d1]"
  endpoint.result: 6.27

* * *

Molecular target: ATF4 (Homo sapiens)
Construct: made in house
Experiment: Direct-binding FRET assay
Settings: 4°C; N-terminal rhodamine design; repeat 3; read-out: Kd
Where no end group is shown, it is not given here.

- chain.sequence: "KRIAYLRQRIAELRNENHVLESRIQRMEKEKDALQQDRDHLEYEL [ATF5-d1]"
  Kd: "> 1 µM"

* * *

Each entry below carries its reported Kd.
Target: ATF3 (Homo sapiens)
Construct: made in house
Experiment: Direct-binding FRET assay
Settings: 37°C; C-terminal rhodamine design; mean or single; read-out: Kd
Where no end group is shown, it is not given here.

- chain.sequence: "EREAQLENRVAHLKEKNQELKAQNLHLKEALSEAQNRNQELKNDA [XBP1-d1]"
  Kd: "> 1000 nM"
- chain.sequence: "NLVAQLEKKNEALKAENAALEIERIQLQDKIEELKYELAAIE [ATF3-d2]"
  Kd: "564 nM"
- chain.sequence: "NDLARLENKAEELKVQNRILVDERKYLQREISELHDELAAHE [ATF3-d1]"
  Kd: "~1000 nM"
- chain.sequence: "KDAASLENKKEELKVQNRILVDERKYLQMMNSELKDELAAHE [ATF3-d3]"
  Kd: "≥ 5000 nM"
- chain.sequence: "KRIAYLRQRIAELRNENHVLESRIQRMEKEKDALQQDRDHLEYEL [ATF5-d1]"
  Kd: "> 1000 nM"

* * *

Molecular target: JUNB (Homo sapiens, UniProt P17275)
Construct: made in house
Sequence (P17275 268-331 limits assumed): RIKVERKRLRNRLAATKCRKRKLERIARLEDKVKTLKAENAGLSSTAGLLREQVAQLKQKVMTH
Experiment: Direct-binding FRET assay
Conditions: 4°C; N-terminal rhodamine design; mean or single; read-out: Kd
pKd: −log10 of the molar value. Where no end group is shown, it is not given here.

- chain.sequence: "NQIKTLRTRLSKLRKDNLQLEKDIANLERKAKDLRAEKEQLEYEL [ATF4-d1]"
  pKd: "< 6.00"
- chain.sequence: "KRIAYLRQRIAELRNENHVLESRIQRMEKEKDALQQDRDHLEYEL [ATF5-d1]"
  pKd: "< 6.00"
- chain.sequence: "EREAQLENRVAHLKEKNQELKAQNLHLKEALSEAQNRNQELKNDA [XBP1-d1]"
  pKd: "< 6.00"

* * *

Biological target: CREB1 (Homo sapiens, UniProt P16220)
Construct: made in house
Sequence (P16220 269-327 limits assumed): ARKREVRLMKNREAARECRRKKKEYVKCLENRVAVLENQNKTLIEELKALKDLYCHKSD
Test: Direct-binding FRET assay
Conditions: 4°C; C-terminal fluorescein design as donor, TAMRA target titrated; read-out: Kd
Where no end group is shown, it is not given here.

- chain.sequence: "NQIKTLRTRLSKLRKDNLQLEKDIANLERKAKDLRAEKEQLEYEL [ATF4-d1]"
  Kd: "> 5 µM"
